Target: Glucocorticoid receptor (Homo sapiens)
Assay: Agonist activity at GR in human HepG2 cells assessed as protein mediated-transcriptional activity by MMTV-promoter driven luciferase reporter gene assay
Format: cell-based
readout: Efficacy (%)
Answers are plain numbers, in %.

Solved entries (count: 3):
{"entry_smiles": "CC#C[C@]1(O)CC[C@H]2[C@@H]3CCc4cc(C(=O)Nc5cccnc5C)ccc4C3=CC[C@@]21C", "Efficacy / %": 51.6}
{"entry_smiles": "CC#C[C@]1(O)CC[C@H]2[C@@H]3CCc4cc(C(=O)Nc5cccnc5C)ccc4[C@H]3[C@@H](OCc3ccccc3)C[C@@]21C", "Efficacy / %": -0.4}
{"entry_smiles": "CC#C[C@]1(O)CC[C@H]2[C@@H]3CCc4cc(C(=O)Nc5cnccc5C)ccc4[C@H]3[C@@H](O)C[C@@]21C", "Efficacy / %": 73}

Okay, next one:
Input line: Returns the measured Efficacy for the input compound. Input: `CC#C[C@]1(O)CC[C@H]2[C@@H]3CCc4cc(C(=O)Nc5cccnc5C)ccc4[C@H]3[C@@H](OCC)C[C@@]21C`
Output line: 67

###

Target: Glucocorticoid receptor (Homo sapiens) (UniProt P04150)
Sequence (whole entry): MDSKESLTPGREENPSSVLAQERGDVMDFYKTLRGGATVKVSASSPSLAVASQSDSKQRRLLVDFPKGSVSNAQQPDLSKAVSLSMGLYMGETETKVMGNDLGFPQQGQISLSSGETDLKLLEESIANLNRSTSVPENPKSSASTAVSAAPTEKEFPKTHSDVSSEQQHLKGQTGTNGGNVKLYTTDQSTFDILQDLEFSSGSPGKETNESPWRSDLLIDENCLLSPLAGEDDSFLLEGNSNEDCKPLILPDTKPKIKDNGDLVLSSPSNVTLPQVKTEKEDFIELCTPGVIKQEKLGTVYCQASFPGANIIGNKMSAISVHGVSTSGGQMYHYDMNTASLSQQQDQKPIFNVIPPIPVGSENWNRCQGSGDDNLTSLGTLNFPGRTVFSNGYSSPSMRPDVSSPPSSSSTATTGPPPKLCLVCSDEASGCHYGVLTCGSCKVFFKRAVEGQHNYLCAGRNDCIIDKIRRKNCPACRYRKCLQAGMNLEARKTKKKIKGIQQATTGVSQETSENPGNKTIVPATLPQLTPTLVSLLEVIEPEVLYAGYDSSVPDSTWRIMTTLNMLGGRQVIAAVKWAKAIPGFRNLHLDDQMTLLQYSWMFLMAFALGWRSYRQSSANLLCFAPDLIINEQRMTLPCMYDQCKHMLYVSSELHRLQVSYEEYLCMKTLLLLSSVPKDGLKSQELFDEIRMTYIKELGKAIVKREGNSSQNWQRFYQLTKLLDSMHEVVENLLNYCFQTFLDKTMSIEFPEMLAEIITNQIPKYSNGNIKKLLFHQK
Assay: Agonist activity at GR in human HepG2 cells assessed as protein mediated-transcriptional activity by MMTV-promoter driven luciferase reporter gene assay
Type: cell-based
I'd appreciate it if you could supply Efficacy values for the items below.
One number for each entry, in %.

Solved entries (count: 4):
{"entry_smiles": "CC#C[C@]1(O)CC[C@H]2[C@@H]3CCc4cc(C(=O)Nc5cccnc5C)ccc4[C@H]3[C@@H](O)C[C@@]21C", "Efficacy, %": 35}
{"entry_smiles": "CC#C[C@]1(O)CC[C@H]2[C@@H]3CCc4cc(C(=O)Nc5cccnc5C)ccc4[C@H]3[C@@H](OCc3ccc(Cl)cc3)C[C@@]21C", "Efficacy, %": -0.2}
{"entry_smiles": "CC#C[C@]1(O)CC[C@H]2[C@@H]3CCc4cc(C(=O)Nc5cccnc5C)ccc4[C@H]3[C@@H](OC)C[C@@]21C", "Efficacy, %": 71}
{"entry_smiles": "C=CCO[C@H]1C[C@@]2(C)[C@@H](CC[C@@]2(O)C#CC)[C@@H]2CCc3cc(C(=O)Nc4cccnc4C)ccc3[C@H]21", "Efficacy, %": 56}

Each compound below has a recorded value; state its Efficacy.
1. CC#C[C@]1(O)CC[C@H]2[C@@H]3CCc4cc(C(=O)Nc5cncc(C)c5)ccc4[C@H]3[C@@H](O)C[C@@]21C
2. CC#C[C@]1(O)CC[C@H]2[C@@H]3CCc4cc(C(=O)Nc5cccnc5)ccc4[C@H]3[C@@H](O)C[C@@]21C
3. Cc1ncccc1NC(=O)c1ccc2c(c1)CC[C@@H]1[C@@H]2[C@@H](O)C[C@@]2(C)[C@H]1CC[C@@]2(O)C#CC(C)C

Output line:
1: -0.1; 2: 0.2; 3: 28
